target: Epidermal growth factor receptor (Homo sapiens, UniProt P00533)
Sequence (P00533 whole entry): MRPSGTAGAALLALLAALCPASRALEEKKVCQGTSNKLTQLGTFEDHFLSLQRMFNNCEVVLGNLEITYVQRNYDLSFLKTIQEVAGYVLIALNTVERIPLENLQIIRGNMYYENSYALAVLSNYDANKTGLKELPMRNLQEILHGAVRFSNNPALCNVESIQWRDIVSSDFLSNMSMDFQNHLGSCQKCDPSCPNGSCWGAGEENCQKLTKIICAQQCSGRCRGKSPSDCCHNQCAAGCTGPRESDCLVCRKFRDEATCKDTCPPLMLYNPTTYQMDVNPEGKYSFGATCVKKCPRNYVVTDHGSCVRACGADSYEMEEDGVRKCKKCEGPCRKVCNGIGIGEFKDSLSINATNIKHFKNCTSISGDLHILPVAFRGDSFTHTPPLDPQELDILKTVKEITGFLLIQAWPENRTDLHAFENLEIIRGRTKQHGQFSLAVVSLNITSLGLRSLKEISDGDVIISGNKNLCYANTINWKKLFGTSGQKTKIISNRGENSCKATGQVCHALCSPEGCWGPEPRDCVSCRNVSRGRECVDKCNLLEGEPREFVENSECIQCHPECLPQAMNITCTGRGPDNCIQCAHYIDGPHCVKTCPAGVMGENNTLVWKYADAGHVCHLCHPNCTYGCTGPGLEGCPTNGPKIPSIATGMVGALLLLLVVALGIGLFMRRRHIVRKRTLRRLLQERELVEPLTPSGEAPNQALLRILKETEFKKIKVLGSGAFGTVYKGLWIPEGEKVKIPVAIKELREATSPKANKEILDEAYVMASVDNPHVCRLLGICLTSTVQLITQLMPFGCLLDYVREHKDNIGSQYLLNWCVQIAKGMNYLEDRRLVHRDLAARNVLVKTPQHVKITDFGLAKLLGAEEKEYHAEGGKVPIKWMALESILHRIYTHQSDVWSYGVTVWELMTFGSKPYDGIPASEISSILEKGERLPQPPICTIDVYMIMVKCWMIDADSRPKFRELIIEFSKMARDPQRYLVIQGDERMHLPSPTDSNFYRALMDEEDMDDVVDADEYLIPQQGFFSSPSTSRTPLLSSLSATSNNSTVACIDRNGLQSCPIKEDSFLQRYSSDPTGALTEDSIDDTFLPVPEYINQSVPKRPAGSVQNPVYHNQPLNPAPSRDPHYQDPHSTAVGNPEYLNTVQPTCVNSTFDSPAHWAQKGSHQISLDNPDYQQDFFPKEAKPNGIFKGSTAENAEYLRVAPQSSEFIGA
Reported values of IC50 for individual entries
Give a bare numeral; the unit nM is implied.

The cases that follow already have their IC50 on record.
smiles_entry=Cc1ccc(C(=O)Nc2ccc(CN3CCN(C)CC3)c(C(F)(F)F)c2)cc1NC(=O)c1cnc2[nH]ncc2c1 assayed_system="Epidermal growth factor receptor (Homo sapiens, UniProt P00533)" experimental_endpoint=IC50 unit_of_measurement=nM numeric_result=30
smiles_entry=Cc1ccc(C(=O)Nc2ccc(CN3CCN(C)CC3)c(C(F)(F)F)c2)cc1NC(=O)c1cnc(NC2CCCC2)nc1 assayed_system="Epidermal growth factor receptor (Homo sapiens, UniProt P00533)" experimental_endpoint=IC50 unit_of_measurement=nM numeric_result=33
smiles_entry=Cc1ccc(C(=O)Nc2ccc(CN3CCN(C)CC3)c(C(F)(F)F)c2)cc1NC(=O)c1cnc(Nc2ccccc2)nc1 assayed_system="Epidermal growth factor receptor (Homo sapiens, UniProt P00533)" experimental_endpoint=IC50 unit_of_measurement=nM numeric_result=6
smiles_entry=CCNc1ncc(C(=O)Nc2cc(C(=O)Nc3ccc(CN4CCN(C)CC4)c(C(F)(F)F)c3)ccc2C)cn1 assayed_system="Epidermal growth factor receptor (Homo sapiens, UniProt P00533)" experimental_endpoint=IC50 unit_of_measurement=nM numeric_result=130

Inquiry: Record lookup: for Epidermal growth factor receptor (Homo sapiens, UniProt P00533), what IC50 belongs to Cc1ccc(C(=O)Nc2ccc(CN3CCN(C)CC3)c(C(F)(F)F)c2)cc1NC(=O)c1cnc(N)nc1 ?
Reply text: 43

* * *

system: LoVo; assay: Antiproliferative activity against human LoVo cells harboring wild-type BRAF after 68 hrs by […]; assay type: functional, cell-based
experimental-endpoint: pIC50
# reply with the number alone; pIC50 is -log10 of concentration in mol/L

smiles_entry=Cc1ccc(C(=O)Nc2ccc(CN3CCN(C)CC3)c(C(F)(F)F)c2)cc1NC(=O)c1cnc2[nH]ccc2c1 numeric_result=6.77

Proceeding to the next compound to report its pIC50.
Inquiry: Requested field: pIC50. Item: Cc1ccc(C(=O)Nc2ccc(CN3CCN(C)CC3)c(C(F)(F)F)c2)cc1NC(=O)c1cnc2[nH]ncc2c1
Reply text: 6.32

* * *

target: Serine/threonine-protein kinase B-raf (Homo sapiens, UniProt P15056, V600E); experiment: Inhibition of BRAF V600E mutant (unknown origin) after 1 to 1.5 hrs by FRET-based Z'-Lyte assay
Sequence (P15056 2-766 V600E limits assumed): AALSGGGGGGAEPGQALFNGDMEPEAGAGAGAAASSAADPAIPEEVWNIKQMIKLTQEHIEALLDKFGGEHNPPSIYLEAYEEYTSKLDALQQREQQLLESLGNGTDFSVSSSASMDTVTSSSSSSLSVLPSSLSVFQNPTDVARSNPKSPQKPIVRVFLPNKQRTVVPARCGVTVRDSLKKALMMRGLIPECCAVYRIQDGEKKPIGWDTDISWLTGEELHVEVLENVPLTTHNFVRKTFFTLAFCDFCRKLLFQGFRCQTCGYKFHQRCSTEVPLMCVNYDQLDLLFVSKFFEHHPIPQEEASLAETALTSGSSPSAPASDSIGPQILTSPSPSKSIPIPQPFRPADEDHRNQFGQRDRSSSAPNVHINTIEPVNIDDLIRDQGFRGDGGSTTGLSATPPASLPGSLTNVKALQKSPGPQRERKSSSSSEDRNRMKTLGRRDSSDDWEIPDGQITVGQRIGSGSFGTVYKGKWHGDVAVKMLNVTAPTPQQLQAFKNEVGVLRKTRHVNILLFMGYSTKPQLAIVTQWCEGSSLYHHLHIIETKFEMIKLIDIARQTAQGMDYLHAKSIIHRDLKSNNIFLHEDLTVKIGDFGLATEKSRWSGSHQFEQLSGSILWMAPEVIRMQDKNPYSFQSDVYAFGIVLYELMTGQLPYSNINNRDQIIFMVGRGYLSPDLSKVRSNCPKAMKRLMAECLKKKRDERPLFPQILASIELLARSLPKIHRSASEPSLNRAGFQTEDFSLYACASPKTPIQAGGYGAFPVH
Reported values of IC50 for individual entries
Give a bare numeral; the unit nM is implied.

The cases that follow already have their IC50 on record.
smiles_entry=Cc1ccc(C(=O)Nc2ccc(CN3CCN(C)CC3)c(C(F)(F)F)c2)cc1NC(=O)c1cnccn1 numeric_result=280
smiles_entry=Cc1ccc(C(=O)Nc2ccc(CN3CCN(C)CC3)c(C(F)(F)F)c2)cc1NC(=O)c1cnc(Nc2ccccc2)nc1 numeric_result=210
smiles_entry=Cc1ccc(C(=O)Nc2ccc(CN3CCN(C)CC3)c(C(F)(F)F)c2)cc1NC(=O)c1cnc(NC(C)C)nc1 numeric_result=340
smiles_entry=CC(C)c1ccc(C(=O)Nc2ccc(CN3CCN(C)CC3)c(C(F)(F)F)c2)cc1NC(=O)c1cnc2[nH]ccc2c1 numeric_result=290
smiles_entry=Cc1ccc(C(=O)Nc2ccc(CN3CCN(C)CC3)c(C(F)(F)F)c2)cc1NC(=O)c1ccccn1 numeric_result=573
smiles_entry=Cc1ccc(C(=O)Nc2ccc(CN3CCN(C)CC3)c(C(F)(F)F)c2)cc1NC(=O)c1cnc(NC2CC2)nc1 numeric_result=390

Proceeding to the next molecule to report its IC50.
Inquiry: Requested field: IC50. Item: Cc1ccc(C(=O)Nc2ccc(CN3CCN(C)CC3)c(C(F)(F)F)c2)cc1NC(=O)c1cnc(N(C)C)nc1
Reply text: 300

* * *

biological target: Serine/threonine-protein kinase B-raf (Homo sapiens, UniProt P15056, V600E); assay: Inhibition of BRAF V600E mutant (unknown origin) after 1 to 1.5 hrs by FRET-based Z'-Lyte assay
experimental-endpoint: IC50 (nM)
Give a bare numeral; the unit nM is implied.

The cases that follow already have their IC50 on record.
smiles_entry=Cc1ccc(C(=O)Nc2ccc(CN3CCN(C)CC3)c(C(F)(F)F)c2)cc1NC(=O)c1cnc2[nH]ccc2c1 experimental_endpoint=IC50 numeric_result=51
smiles_entry=Cc1ccc(C(=O)Nc2ccc(CN3CCN(C)CC3)c(C(F)(F)F)c2)cc1NC(=O)c1cnc(N)nc1 experimental_endpoint=IC50 numeric_result=410
smiles_entry=Cc1ccc(C(=O)Nc2ccc(CN3CCN(C)CC3)c(C(F)(F)F)c2)cc1NC(=O)c1cnc(NC2CCCC2)nc1 experimental_endpoint=IC50 numeric_result=230
smiles_entry=CN1CCN(Cc2ccc(NC(=O)c3cccc(NC(=O)c4cnc5[nH]ccc5c4)c3)cc2C(F)(F)F)CC1 experimental_endpoint=IC50 numeric_result=48
smiles_entry=Cc1ccc(C(=O)Nc2ccc(CN3CCN(C)CC3)c(C(F)(F)F)c2)cc1NC(=O)c1cnc2[nH]ncc2c1 experimental_endpoint=IC50 numeric_result=48
smiles_entry=Cc1ccc(C(=O)Nc2ccc(CN3CCN(C)CC3)c(C(F)(F)F)c2)cc1NC(=O)c1cncnc1 experimental_endpoint=IC50 numeric_result=670
smiles_entry=Cc1ccc(C(=O)Nc2ccc(CN3CCN(C)CC3)c(C(F)(F)F)c2)cc1NC(=O)c1ccccc1 experimental_endpoint=IC50 numeric_result=240
smiles_entry=Cc1ccc(C(=O)Nc2ccc(CN3CCN(C)CC3)c(C(F)(F)F)c2)cc1NC(=O)c1cccnc1 experimental_endpoint=IC50 numeric_result=551
smiles_entry=CCc1ccc(C(=O)Nc2ccc(CN3CCN(C)CC3)c(C(F)(F)F)c2)cc1NC(=O)c1cnc2[nH]ccc2c1 experimental_endpoint=IC50 numeric_result=360
smiles_entry=Cc1ccc(C(=O)Nc2ccc(CN3CCN(C)CC3)c(C(F)(F)F)c2)cc1NC(=O)c1cnc(NC2CCCCC2)nc1 experimental_endpoint=IC50 numeric_result=37

Inquiry: Requested field: IC50. Item: CCNc1ncc(C(=O)Nc2cc(C(=O)Nc3ccc(CN4CCN(C)CC4)c(C(F)(F)F)c3)ccc2C)cn1
Reply text: 510

Inquiry: Queued: Cc1ccc(C(=O)Nc2ccc(CN3CCN(C)CC3)c(C(F)(F)F)c2)cc1NC(=O)c1ccc2[nH]ccc2c1
Reply text: 220

Inquiry: Queued: CNc1ncc(C(=O)Nc2cc(C(=O)Nc3ccc(CN4CCN(C)CC4)c(C(F)(F)F)c3)ccc2C)cn1
Reply text: 290

Inquiry: Queued: Cc1ccc(C(=O)Nc2ccc(CN3CCN(C)CC3)c(C(F)(F)F)c2)cc1NC(=O)c1ccncc1
Reply text: 110
